Test: yeast display, Sf9 membrane polyspecificity reagent, FACS + sequencing; frameworks hold sequencing errors
Quantity Kind: polyreactivity (PSR sort gate)

Here are 6 sequences together with their reported answers.
QVQLVESGGGLVQAGGSIRLSCAASGSTFRYYTMGWYRQAPGKERELVATITRDGRTYYADSVKGRFTISRDNAKNTVYLQMYSLKPEDTAVYYCNVRRAFSGWRGYDYWGQGTQVTVSS ... high polyreactivity
QVQLVESGGGLVQAGGSLRLSCAASGRIFGPYAMGWYRQAPGKERELVASITRSGGRTYYADSVKGRFTISRDNAKNTVYLQMNSLKPEDSAVYYCAAGGFSKSYYYWGQGSQVTVSS ... high polyreactivity
QVQLVESGGGLVQAGGSLRLSCAASGLTFGDYTMGWYRQAPGKERELVAAITWSGASTYYADSVKGRFTISRDNAKNTVYLQMNSLKPEDTAVYYCADERTPSYRAYDYWGQGTKVTVSS ... low polyreactivity
QVQLVESGGGLVQAGGSLRLSCAASGSTFVCYGMGWYRQAPGKEREFVAAISTSGGRTYYADSVKGRFSISRDNAKNTVYLQMNSLKQEDTAVYYCATRPYFTYRWYDYWGQGTKVTVSS ... high polyreactivity
QVQLVESGGGLVQAGGSLRLSCAASGLTFTDYAMGWNRQAPGKERELVAGIWDGGSTYYADSVNGRFTISRDNPKNTVYLLMNSLKPEDTAVYYCAARYAGGFYYWGQGTQVTVSS ... high polyreactivity
QVQLVESGGGLVQAGGSLRLSCAASGRIFYSYAMGWYRQAPGKERELVAAITRSVARTYYADSVKGRFTISRDNAKNTVYLQMNCLKPEDTAVYYCAADWYQWGGRYYAPRYYYWGQGTQVTVSS ... high polyreactivity

Please supply polyreactivity (PSR sort gate) for each of the following items, keeping them in order.
1. QVHLVESGGCLVQAGGSLRLSCAAYGSIFPKYALGWYRQAPGKERELVATISYRGGRTYYADSVKRRFTISRDNAKNTVYLQMNSLKPEDTAVYYWNAHSQAKLDYWGQGTQVTVSS
2. QVQLVESGGGLVQAGGSLRLSCAASGSIFEPNAMGWYRQAPGKERELVAAISWNDGDTYYADSVKGRFTISRDNAKNTVYLQMNSLKPVDTAVYYCAAETGYAFDYWGQGTQVTVSS
3. QVQLVESGGGLVQAGGSLRLSCAASGRTFYKYAMGWYRQAPGKERELVAAISSRGGRTYYADSVKGRFTISRDNAKNTVYLQMNSLKPEDTAVYYCAAKGRPDGKYDYWGQGTQVTVSS
4. QVQLVESGGGLVQAGGSLRLSCAASGRIFWYYVMGWYRQAPGKEREFVASISSGGSTYYADSVKGRFTISRDNAKNTVYLQMNSLKPEDTAVYYCNAYVYGQRVWYDYWGQGTQVTVSS
5. QVQLEESGGGLVQAGGSLRLSCAASGSIFVGNVMGWYRQAPGKERELVAAITYSGGSTYYADSVKGRFTISRDNAKNTVYLQMNSLKPEDTAVYYCAKPSRVSIGYDYWGQGTQVTVSS

Given back:
low polyreactivity
low polyreactivity
high polyreactivity
high polyreactivity
low polyreactivity

====

Test: yeast display, Sf9 membrane polyspecificity reagent, FACS + sequencing; frameworks hold sequencing errors
Quantity Kind: polyreactivity (PSR sort gate)

Sample records with polyreactivity (PSR sort gate):
QVQLVESRGGLVQAGGSLRLSCAASGIIFDTNAMGWYRQAPGKERELVATITQRGGTTYYADSVKGRFTISRDNAKNTVYLQMNSLKPEDTAVYYCNAGPVRLPYDSWGQGTQVTVSS ... low polyreactivity
QVQLVESGGGLVQAGGSLRLSCAASGRIIYRYAMGWYRQAPGKERELVAAIRYSGGRTYYADSVKGRFTISRDNAKNTVYLQMNSLKPEDTAVYYCAADGQWYYARFRGGDYENDYWGQGTQVTVSS ... low polyreactivity
QVQLLESGGGLVQAGGSLRLSCAASGYTFARYAMGWYRQAPGQERELVAAITSSGGSTYYADSVKGRFTISRDNAKNTVYLQMNSLKPEDTAVYYCNARGFQKSDPRGYLILNYWGQGTQVTVSS ... high polyreactivity
QVQLVESGGGLVQAGGSLRLSCAASGRTYRRYAMGWYRQAPGKERELVASISRTGGSTYYADAVKRRYTISRDNAKNTVYLQMNSLKPVDTAVYYCNAGPSVGWYNYWGQGTQVSVSS ... high polyreactivity
QVQLVESGGGLVQAGGSLRLSCAASGRIFFLNTMGWYRQAPGKERELVAAITRGGSTYYADSVKGRFTISRDNAKNTVYLHMNSLKPEDTAVYYCAADVYGGIGYDYWGQGTQVTVSS ... low polyreactivity
QVQLVESGGGLVQAGGSLRLSCAASGFIFSRYAMGWYRQAPGKERELVAAIRFSGSITYYADSVKGRFTISRDNAKNTVYLQMNSLKPEDTAVYYCAAYRRYYGWYEYWGQGTQVTVSS ... high polyreactivity
QVQLVESGGGLVQAGGSLRLSCAASGSTFKQYAMGWYSQAPGKERELVAAISLSGSRTYYADSVKVRFTISRDNAKNTVYLQMKSLIPVDTAVYYCAAELRSSAGWLYDYWGQGTQVTVSS ... high polyreactivity
QVQLVESGGGLVQAGGSLRLSCAASGSILQTNVMGWYIQAPGKEREFVAAIRWSTVSTYYADSVKGRFTISRDNAKNTVYLQMNSLKPEDTAVYYCASAKSWYSYKMDYWGQGTQVTVSS ... low polyreactivity
QVQLVESGGGLVQAGGSLRLSCAASGRIFDIYAMGWSRQAPGKERELVAAIDESGGSTYYADSVKGRFTISRDNAKNTVYLQMNSLKPEDTAVDYCATDDTWTIAYGWYWFTYEYWGQGTQVTVSS ... low polyreactivity
QVQLVESGGGLVQAGGSLRLSCAASGRIFTVYAMGWYRQAPGKERELVAAITRGGGGTYYADSVKGRFTISRDNAKNTVYFQMNSLKPEETAVYYCAAAYRGDRWSYRVDYWGQGTQVTVSS ... high polyreactivity

Pending sequence:
Asked: For QVQLVESGGGLVQAGGSLRLSCAASGSIFSYYAMGWYRQAPGKERELVAAISSRGGSTYYADSVKGRFTISRDNAKKTVYLQMNSLKPEDTAVYYCAADWTSWFGVTYDYWGQGTQVTVSS , write its polyreactivity (PSR sort gate).
Given back: high polyreactivity
